Origin of measurements: patent US10000535B2

molecular target: human UTR2 receptor (Homo sapiens); construct: expressed in transfected cells; host or cells: mouse pre-B cell line 300-19; assay: Calcium mobilization assay, agonist activity at urotensin receptor; format: cell-based; conditions: mouse pre-B 300-19 cells transfected with human UTR2, read-out: EC50% (nM) ± SD, Urotensin receptor
Sequence (Q9UKP6 whole entry): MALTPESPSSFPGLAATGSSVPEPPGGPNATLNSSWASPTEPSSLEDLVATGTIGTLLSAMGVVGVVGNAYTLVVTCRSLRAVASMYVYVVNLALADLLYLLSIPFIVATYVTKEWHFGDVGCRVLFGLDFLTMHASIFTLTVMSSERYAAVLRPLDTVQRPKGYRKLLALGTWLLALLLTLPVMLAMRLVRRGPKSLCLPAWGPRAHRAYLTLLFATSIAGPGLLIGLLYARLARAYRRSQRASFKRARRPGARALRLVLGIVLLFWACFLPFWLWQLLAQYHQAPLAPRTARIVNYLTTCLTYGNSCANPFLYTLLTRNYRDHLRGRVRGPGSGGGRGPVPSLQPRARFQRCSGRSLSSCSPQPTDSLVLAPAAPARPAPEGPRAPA
Non-standard residues stand in square brackets, D forms with d. Residues, ends and D or L forms follow the SMILES beside them. Tic = O=C(O)[C@@H]1Cc2ccccc2CN1; Aze = O=C(O)[C@@H]1CCN1
Attribute: EC50
Response body: numeric value in nM, unit text excluded.

NCCCC[C@@H]1NC(=O)[C@H](Cc2c[nH]c3ccccc23)NC(=O)[C@H](Cc2ccccc2)NC(=O)[C@@H]2Cc3ccccc3CN2C(=O)[C@H]2CCCN2C(=O)[C@H](Cc2ccc(O)cc2)NC1=O [Example 1] (cyclo(FWKY[dP][Tic])) : 54
NCCCC[C@@H]1NC(=O)[C@H](Cc2c[nH]c3ccccc23)NC(=O)[C@H](CCC(N)=O)NC(=O)[C@@H]2CCN2C(=O)[C@H]2CCCN2C(=O)[C@H](Cc2ccc(O)cc2)NC1=O [Example 6] (cyclo(QWKY[dP][Aze])) : 134
NCCCC[C@@H]1NC(=O)[C@H](Cc2c[nH]c3ccccc23)NC(=O)[C@H](CCC(N)=O)NC(=O)[C@@H]2Cc3ccccc3CN2C(=O)[C@H]2CCCN2C(=O)[C@H](Cc2ccc(O)cc2)NC1=O [Example 3] (cyclo(QWKY[dP][Tic])) : 82

Here is the next item to consider.
Notebook: `COc1ccc2c3c1CNC(=O)[C@H](Cc1ccc(O)cc1)NC(=O)[C@H](CCCCN)NC(=O)[C@H](Cc1c[nH]c4ccccc14)NC(=O)[C@H](CCC(=O)O)NC(=O)Cc1c(OC)ccc(c1O3)C2(C)C` , EC50 read as 274

* * *

target: human UTR2 receptor (Homo sapiens); construct: expressed in transfected cells; host or cells: mouse pre-B cell line 300-19; assay: Calcium mobilization assay, agonist activity at urotensin receptor; format: cell-based; settings: mouse pre-B 300-19 cells transfected with human UTR2, read-out: EC50% (nM) ± SD, Urotensin receptor
Non-standard residues stand in square brackets, D forms with d. Residues, ends and D or L forms follow the SMILES beside them. Aze = O=C(O)[C@@H]1CCN1
Lab note: cut-off is 200 nM. Strictly less in EC50 is TRUE. Exactly 200 nM or more is FALSE.

COc1ccc2c3c1CNC(=O)[C@H](Cc1ccc(O)cc1)NC(=O)[C@H](CCCCN)NC(=O)[C@H](Cc1c[nH]c4ccccc14)NC(=O)[C@H](CCC(N)=O)NC(=O)Cc1c(OC)ccc(c1O3)C2(C)C [Example 10] : TRUE
CC[C@H](C)[C@@H]1NC(=O)C[C@@H]2NC(=O)[C@@H]3C[C@@H](CN3C2=O)NC(=O)[C@H](Cc2ccc(O)cc2)NC(=O)[C@H](CCCCN)NC(=O)[C@H](Cc2c[nH]c3ccccc23)NC1=O [Example 14] : TRUE
CC[C@H](C)[C@@H]1NC(=O)Cc2c(OC)ccc3c2Oc2c(ccc(OC)c2CNC(=O)[C@H](Cc2ccc(O)cc2)NC(=O)[C@H](CCCCN)NC(=O)[C@H](Cc2c[nH]c4ccccc24)NC1=O)C3(C)C [Example 11] : TRUE
COc1ccc2c3c1CNC(=O)[C@H](Cc1ccc(O)cc1)NC(=O)[C@H](CCCCN)NC(=O)[C@H](Cc1c[nH]c4ccccc14)NC(=O)[C@H](Cc1ccccc1)NC(=O)Cc1c(OC)ccc(c1O3)C2(C)C [Example 8] : TRUE
COc1ccc2c3c1CNC(=O)[C@H](Cc1c[nH]cn1)NC(=O)[C@H](Cc1ccc(O)cc1)NC(=O)[C@H](CCCCN)NC(=O)[C@H](Cc1c[nH]c4ccccc14)NC(=O)Cc1c(OC)ccc(c1O3)C2(C)C [Example 12] : FALSE

Here's the next entry for you.
*Q* Dear reviewer, please state whether NCCCC[C@@H]1NC(=O)[C@H](Cc2c[nH]c3ccccc23)NC(=O)[C@H](Cc2ccccc2)NC(=O)[C@@H]2CCN2C(=O)[C@H]2CCCN2C(=O)[C@H](Cc2ccc(O)cc2)NC1=O [Example 4] (cyclo(FWKY[dP][Aze])) has EC50 strictly beneath 200 nM.
*A* TRUE
